- assay procedure: Curing of unsaturated polyester-styrene resin
- details: bath 115° C.
- Protocol: An unsaturated polyester resin was made by reacting maleic anhydride (1.0 mole), phthalic anhydride (1.0 mole), and propylene glycol (2.2 moles) until an acid number of 45-50 was obtained. To this was added hydroquinone at a 0.013% concentration. Seven parts of this unsaturated polyester was diluted with 3 parts of monomeric styrene to obtain a homogeneous blend having a viscosity of 13.08 poise and a specific gravity of 1.14. […]
Quick list: peak exotherm per entry.
measurement kind: peak exotherm (° F)

> print(dat)
                                   molecule  measurement.kind  result.unit  assay.result
1  CC(C)CC(C)(N=NC(C)(C)C)SC#N (stereo not shown) [LI]     peak exotherm          ° F           438
2  COC(C)(CC(C)C)N=NC(C)(C)C (stereo not shown) [XXXVI, 2-t-butylazo-2-methoxy-4-methylpentane]     peak exotherm          ° F           400
3  CC(C)CC(C)(N=NC(C)(C)C)OC(C)(C)C (stereo not shown) [LIV, 2-t-Butylazo-2-t-butoxy-4-methylpentane]     peak exotherm          ° F           358
4  CC(C)CC(C)(N=NC(C)(C)C)OC#N (stereo not shown) [LIII, 2-t-Butylazo-2-cyanato-4-methylpentane]     peak exotherm          ° F           412

----------
- assay procedure: Curing of unsaturated polyester-styrene resin
- details: 265° F. (129.4° C.), 1.0 weight per cent
measurement kind: peak exotherm (° F.)

> print(dat)
                                   compound  measurement.kind  result.unit  assay.result
1  CC(C)(N=NC(N)=O)c1ccccc1 [XVIII, Tert.-cumylazoformamide]     peak exotherm         ° F.           454
2  CC(C)(C)N=NC(N)=O [Example XIII, tert.-butylazoformamide]     peak exotherm         ° F.           438
3  CNC(=O)N=NC(C)(C)C [XIV, tert.-butylazo-N-methylformamide]     peak exotherm         ° F.           428
4                 COC(=O)CNC(=O)N=NC(C)(C)C     peak exotherm         ° F.           484

----------
- assay procedure: Curing of unsaturated polyester-styrene resin
- details: 240° F. (115.6° C.), 1.0 weight per cent
peak exotherm less than 400 ° F. is Y; peak exotherm greater than or equal to 400 ° F. is N.

> print(dat)
                                   compound  label.class
1               CC(C)(C)N=NC1(C(N)=O)CCCCC1            N
2  CC(C)(N=NC(N)=O)c1ccccc1 [XVIII, Tert.-cumylazoformamide]            N
3  CC(C)(C)N=NC(N)=O [Example XIII, tert.-butylazoformamide]            N
4                  CC(C)(C)N=NC(C)(C)C(N)=O            N
5                 COC(=O)CNC(=O)N=NC(C)(C)C            Y

----------
- assay procedure: Curing of unsaturated polyester-styrene resin
- details: 180° F. (82.2° C.), 1.0 weight per cent
measurement kind: time to peak exotherm (min)

> print(dat)
                                   compound  result.unit  assay.result
1  CC(C)(C)N=NC(=O)C(C)(C)C [Example XIX, Pivaloyl tert.-butyldiimide]          min           4.9
2  CC1CC(C)(C)CC(C#N)(N=NC(C)(C)C)C1 (stereo not drawn)          min           9.4
3              CC(C)(C#N)N=NC(C)(C)c1ccccc1          min           1.3
4           CC(C)CC(C#N)(CC(C)C)N=NC(C)(C)C          min           2.8
5  CC(C)(C)N=NC(C)(C#N)CCC(=O)O (stereo not drawn)          min           8.5
6  CC(C)(C)N=NC(=O)c1ccccc1 [Example XX, Benzoyl tert.-butyldiimide]          min          10.0

----------
temperature at which it evolves nitrogen less than 40 °C is 1.0; temperature at which it evolves nitrogen greater than or equal to 40 °C is 0.0.

> print(dat)
                                   molecule  label.class
1  CC(C)(C)N=NC(=O)C(C)(C)C [Example XIX, Pivaloyl tert.-butyldiimide]          1.0
2  CC(C)(C)N=NC1=CCCCC1 [XXIII, 1(-tert.-butylazo)cyclohexene]          0.0
3  CC(C)CC(C)(N=NC(C)(C)C)OOC(C)(C)CCC(C)(C)OOC(C)(CC(C)C)N=NC(C)(C)C (stereo not shown)          1.0
4  CC(C)(C)N=NC(=O)c1ccccc1 [Example XX, Benzoyl tert.-butyldiimide]          1.0
5  CC(C)OC(=O)N=NC(C)(C)c1ccccc1 [Example XVIII B, Isopropyl tert.-cumylazocarboxylate]          0.0

----------
- details: onset
Decide by temperature at which it begins to evolve nitrogen: equal to or exceeding 70 °C means y, less means n.

> print(dat)
                                   compound  label.class
1  CC(C)(C)N=NC(=O)NCC(=O)O [XVII, tert.-butylazo-N-carboxymethylformamide]            n
2  CC(C)(C#N)N=NC(C)(C)c1ccccc1 [Example XI, Alpha-(tert.-cumylazo)isobutyronitrile]            n
3  CC1CC(C)(C)CC(C#N)(N=NC(C)(C)C)C1 (stereo not drawn) [Example VIII]            y
4  CC(C)(C)N=Nc1nc(N=NC(C)(C)C)nc(N=NC(C)(C)C)n1 [XXI]            y
5           COC(=O)CNC(=O)N=NC(C)(C)C [XVI]            y
6  CC(C)(C)N=NC(C)(C#N)C1CC1 (stereo not drawn) [Example XII]            y
7  CC(C)(C)N=NC(C)(C#N)CCC(=O)O (stereo not drawn) [Example X]            y
8  CC(C)(C)N=NC(C)(C#N)C(C)(C)C (stereo not drawn) [Example IX]            y
